# Tested on: SK-OV-3
# Procedure text: NCI tumour cell line growth inhibition, 48 h
The source made the active and inactive calls. No stated cut-off is given here; in the data, active = GI50 up to about 1.1 µM and inactive = higher.
Observation type: GI50

Would you please look over these solved cases?
Ask | Need GI50 of `Cc1cn(CC2=NCC(C)(C)CN2)c(=O)[nH]c1=O` , thanks.
Reply | > 100 µM (inactive)

Ask | Need GI50 of `CCN(CC)CCCNc1nncc2cc3c([nH]c4ccccc43)c(C)c12` , thanks.
Reply | 15.2 µM (inactive)

Ask | Need GI50 of `SC1=Nc2ccccc2-c2nc(-c3ccccc3)cc(-c3ccc(Br)cc3)c2C1` , thanks.
Reply | 0.897 µM (active)

Ask | Need GI50 of `S=C(N/N=C/c1ccco1)NC12CC3CC(CC(C3)C1)C2` , thanks.
Reply | > 100 µM (inactive)

Ask | Need GI50 of COc1ccc(N[S+]([O-])CCc2ccccc2)cc1 (stereo unspecified) , thanks.
Reply | 4.35 µM (inactive)

Ask | Need GI50 of CCOP(=O)(OCC)C(c1ccccc1)N(C(=O)NC(F)(F)F)c1ccc(C)cc1 (stereo unspecified) , thanks.
Reply | > 100 µM (inactive)

Could I get GI50 for every one of these entries?
1. COc1cc(/C=C2\N=C(c3ccccc3)N(c3nc4ccc(Sc5ccccc5)cc4[nH]3)C2=O)cc(OC)c1OC
2. Cn1c(=O)nc2n(-c3ccc(Cl)cc3)c(-c3ccccc3)c(-c3ccccc3)nc-2c1=O
3. COc1cccc(NCC(=O)Nn2c(-c3ccccc3)nc3ccccc3c2=O)c1
4. Cc1nc2c(n1Cc1ccc(Cl)cc1)C(=O)c1ccccc1C2=O
5. CCNC(=S)/N=c1\sc(NCC)nc2sc3c(c12)CCN(N1CCc2c(sc4nc(NCC)s/c(=N\C(=S)NCC)c24)C1)C3
6. COc1ccccc1C1(c2c(OC(C)C)c(=O)c2=O)SCCCS1
7. COC(=O)c1ccc(Nc2nc3[nH]cnc3c(=O)[nH]2)cc1
8. CC1(C)CCC[C@]2(C)[C@@H]1CC[C@@]13O[C@@H]1C1=C(CO)C(=O)O[C@]14O[C@@H]4[C@@H]23

Reply |
1: 30.1 µM (inactive); 2: 40.3 µM (inactive); 3: > 100 µM (inactive); 4: > 75 µM (inactive); 5: > 100 µM (inactive); 6: > 100 µM (inactive); 7: 89.3 µM (inactive); 8: 16.7 µM (inactive)

Could I get GI50 for every one of these entries?
1. COc1ccc(-c2nc3ccc([N+](=O)[O-])cc3c(=O)[nH]2)cc1
2. O=C(CC1(O)C(=O)Nc2c(Cl)cc(Cl)cc21)c1ccc([N+](=O)[O-])cc1 (stereo unspecified)

Reply |
1. 13.6 µM (inactive)
2. > 100 µM (inactive)
